molecular target: Inhibitor of nuclear factor kappa-B kinase subunit alpha (Homo sapiens); assay: Inhibition of IKK-alpha
Sequence (O15111 whole entry): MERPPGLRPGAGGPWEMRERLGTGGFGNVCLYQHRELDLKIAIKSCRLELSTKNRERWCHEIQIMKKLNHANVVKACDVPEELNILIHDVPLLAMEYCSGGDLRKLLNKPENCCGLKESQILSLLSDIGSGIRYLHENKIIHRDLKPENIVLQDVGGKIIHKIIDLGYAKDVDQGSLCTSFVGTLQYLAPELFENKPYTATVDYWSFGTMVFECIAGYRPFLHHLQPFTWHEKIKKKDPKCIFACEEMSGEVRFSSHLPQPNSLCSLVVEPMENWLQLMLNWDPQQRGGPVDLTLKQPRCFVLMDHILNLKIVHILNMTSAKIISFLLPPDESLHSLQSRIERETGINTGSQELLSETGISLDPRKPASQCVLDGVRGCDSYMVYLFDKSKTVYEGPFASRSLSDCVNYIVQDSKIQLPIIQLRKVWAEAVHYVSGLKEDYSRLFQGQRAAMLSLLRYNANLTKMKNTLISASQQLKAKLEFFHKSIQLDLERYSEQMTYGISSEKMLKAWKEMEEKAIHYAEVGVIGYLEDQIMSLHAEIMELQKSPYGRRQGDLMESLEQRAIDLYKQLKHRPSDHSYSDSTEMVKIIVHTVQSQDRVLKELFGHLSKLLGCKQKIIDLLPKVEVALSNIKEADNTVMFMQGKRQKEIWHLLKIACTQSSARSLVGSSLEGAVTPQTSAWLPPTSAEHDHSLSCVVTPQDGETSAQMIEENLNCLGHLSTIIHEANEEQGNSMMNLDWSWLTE
Record form. Attribute: pIC50. Fill in for each entry.
The value called pIC50 is obtained by taking minus log10 of the concentration in mol/L.

Task item: Give measured pIC50 for NC(=O)c1cc(-c2ccc(Cl)cc2)cc2cc[nH]c12 (Inhibitor of nuclear factor kappa-B kinase subunit alpha (Homo sapiens)).
Reply: 5.20

Task item: Param request: pIC50 | system Inhibitor of nuclear factor kappa-B kinase subunit alpha (Homo sapiens) | item NC(=O)c1cc(-c2ccccc2)cc2c(C3CCNCC3)c[nH]c12
Reply: 5.00

Task item: Quote Inhibitor of nuclear factor kappa-B kinase subunit alpha (Homo sapiens) pIC50 for entry CC(C)S(=O)(=O)N1CCC(c2c[nH]c3c(C(N)=O)cc(-c4ccccc4)cc23)CC1 .
Reply: 5.50

Task item: Give pIC50 for this entry on Inhibitor of nuclear factor kappa-B kinase subunit alpha (Homo sapiens): NC(=O)c1cc(-c2cccc(CO)c2)cc2cc[nH]c12
Reply: 4.80

Task item: State, for Inhibitor of nuclear factor kappa-B kinase subunit alpha (Homo sapiens), measured pIC50 of the compound listed here: NC(=O)c1cc(-c2cc3ccccc3o2)cc2cc[nH]c12
Reply: 5.40

Task item: Find the measured pIC50 of NC(=O)c1cc(-c2ccc(CO)cc2)cc2cc[nH]c12 with Inhibitor of nuclear factor kappa-B kinase subunit alpha (Homo sapiens) as test system.
Reply: 4.80

Task item: Please indicate recorded pIC50 of CS(=O)(=O)Nc1ccc(-c2cc(C(N)=O)c3[nH]ccc3c2)cc1 measured with Inhibitor of nuclear factor kappa-B kinase subunit alpha (Homo sapiens).
Reply: 5.40

Task item: System Inhibitor of nuclear factor kappa-B kinase subunit alpha (Homo sapiens). Read-out pIC50. Item NC(=O)c1cc(-c2ccccc2)cc2cc[nH]c12 . Report value.
Reply: 5.00

Task item: Look up and report pIC50, with Inhibitor of nuclear factor kappa-B kinase subunit alpha (Homo sapiens) as system, for NC(=O)c1cc(-c2ccccc2)cc2c(C3CCN(S(=O)(=O)c4ccc(Cl)cc4)CC3)c[nH]c12
Reply: 5.10

Task item: GET pIC50 | system: Inhibitor of nuclear factor kappa-B kinase subunit alpha (Homo sapiens) | item: NC(=O)c1cc(-c2ccccc2)cc2c(C3CCCNC3)c[nH]c12 (stereo unspecified)
Reply: 5.80

====

molecular target: Casein kinase I isoform epsilon (Homo sapiens); assay: Binding affinity to CSNK1eplison assessed as dissociation constant
Sequence (P49674 whole entry, canonical isoform): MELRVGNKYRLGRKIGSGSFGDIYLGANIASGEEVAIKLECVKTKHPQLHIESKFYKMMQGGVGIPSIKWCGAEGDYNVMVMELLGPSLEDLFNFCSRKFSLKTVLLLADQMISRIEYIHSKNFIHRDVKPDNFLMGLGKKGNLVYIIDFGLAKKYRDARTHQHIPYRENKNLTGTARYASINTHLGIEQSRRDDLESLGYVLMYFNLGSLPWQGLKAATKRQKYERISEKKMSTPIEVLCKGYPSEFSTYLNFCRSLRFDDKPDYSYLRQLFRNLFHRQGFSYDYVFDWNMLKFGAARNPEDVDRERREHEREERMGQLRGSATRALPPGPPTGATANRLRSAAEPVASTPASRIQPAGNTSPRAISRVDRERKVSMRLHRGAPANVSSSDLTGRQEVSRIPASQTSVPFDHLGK
MEASUREMENT_NAME: Kd (nM)
Reply with just the number (in nM).

Task item: State its Kd: CCCS(=O)(=O)N1CCC(c2c[nH]c3c(C(N)=O)cc(-c4ccccc4)cc23)CC1
Reply: 1580

====

biological target: Inhibitor of nuclear factor kappa-B kinase subunit beta (Homo sapiens, UniProt O14920); assay: Inhibition of IKK-beta
Sequence (O14920 whole entry): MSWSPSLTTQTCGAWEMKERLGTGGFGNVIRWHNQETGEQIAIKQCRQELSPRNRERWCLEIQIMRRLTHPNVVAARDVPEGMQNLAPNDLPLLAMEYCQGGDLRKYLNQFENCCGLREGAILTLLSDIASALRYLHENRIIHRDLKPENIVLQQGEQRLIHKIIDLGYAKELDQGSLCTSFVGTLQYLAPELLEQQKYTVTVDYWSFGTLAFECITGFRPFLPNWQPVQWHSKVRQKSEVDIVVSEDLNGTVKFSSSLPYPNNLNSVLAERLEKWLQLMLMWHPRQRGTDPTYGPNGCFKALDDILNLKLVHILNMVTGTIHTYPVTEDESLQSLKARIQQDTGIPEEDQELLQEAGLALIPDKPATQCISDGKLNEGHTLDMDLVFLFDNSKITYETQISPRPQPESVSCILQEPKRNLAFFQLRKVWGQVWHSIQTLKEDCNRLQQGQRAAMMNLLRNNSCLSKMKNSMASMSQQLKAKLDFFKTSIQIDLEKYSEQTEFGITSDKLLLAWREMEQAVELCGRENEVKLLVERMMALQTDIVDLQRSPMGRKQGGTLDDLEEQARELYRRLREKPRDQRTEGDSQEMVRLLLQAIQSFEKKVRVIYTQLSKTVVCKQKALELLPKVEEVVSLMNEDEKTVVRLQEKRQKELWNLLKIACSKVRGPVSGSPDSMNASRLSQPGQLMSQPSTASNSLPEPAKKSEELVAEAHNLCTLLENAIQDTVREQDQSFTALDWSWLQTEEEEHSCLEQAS
// NB: equality with 400 nM counts as Not satisfied; only IC50 strictly below is Satisfied

Task item: Does the reported IC50 of the following molecule sit strictly below 400 nM? NC(=O)c1cc(-c2cc3ccccc3o2)cc2cc[nH]c12
Reply: Not satisfied

Task item: Identify whether the molecule CCCS(=O)(=O)N1CCC(c2c[nH]c3c(C(N)=O)cc(-c4ccccc4)cc23)CC1 records IC50 below 400 nM.
Reply: Satisfied

Task item: Is it true that IC50 reported for NC(=O)c1cc(-c2cccc(Cl)c2)cc2cc[nH]c12 is less than 400 nM?
Reply: Not satisfied

Task item: is_below(IC50, 400 nM) for CCc1ccc(-c2cc(C(N)=O)c(NC(N)=O)s2)cc1 ?
Reply: Satisfied

Task item: Dear colleague, could you confirm whether IC50 of CC(C)S(=O)(=O)N1CCC(c2c[nH]c3c(C(N)=O)cc(-c4ccccc4)cc23)CC1 falls below 400 nM? Thanks.
Reply: Satisfied

Task item: Determine whether this molecule shows IC50 lower than 400 nM (ties excluded): NC(=O)c1cc(-c2cncnc2)cc2cc[nH]c12
Reply: Not satisfied

Task item: Is IC50 strictly under 400 nM for the entry NC(=O)c1cc(-c2ccc(Cl)cc2)cc2cc[nH]c12 ?
Reply: Satisfied

Task item: Please state whether IC50 is below 400 nM for CCS(=O)(=O)N1CCC(c2c[nH]c3c(C(N)=O)cc(-c4ccccc4)cc23)CC1
Reply: Satisfied

Task item: Quick check: IC50 of O=C(O)c1cc(-c2ccccc2)cc2cc[nH]c12 under 400 nM?
Reply: Not satisfied

Each recorded value in this set is attributed to ChEMBL document CHEMBL1759890.
